test system: Escherichia coli TOP10; test: shrunken log2 fold change of peptide-encoding DNA abundance (4.5 h post-induction vs induction); higher = less antimicrobial activity (less host growth inhibition); conditions: time post-induction: 4.5 h; library: site-saturation at positions 5, 18, 19, 20;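 further: peptides expressed intracellularly from a pBAD plasmid library in pooled LB shake-flask culture, induced with 0.3% L-arabinose, DNA abundance read by NGS, three biological replicates, DESeq2 with apeglm shrinkage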
Classify by measured shrunken log2 fold change: Condition met if it is equal to or exceeds 0.2, Condition not met if it is smaller.

Can "RRIRGRPPRLPRPRPRPPRWPRP" be said to have shrunken log2 fold change at or above 0.2?
Condition met

Can you check "RRIRHRPPRLPRPRPRPHIFPRP" next?
Condition not met

Also "RRIRVRPPRLPRPRPRPWVCPRP" ?
Condition not met

How about this sequence: "RRIRFRPPRLPRPRPRPDLGPRP"
Condition not met

Try the sequence "RRIRARPPRLPRPRPRPHVWPRP"
Condition met

Next sequence: "RRIRRRPPRLPRPRPRPKAQPRP"
Condition not met

# iterate: "RRIRFRPPRLPRPRPRPKGRPRP"
Condition not met

What about "RRIRCRPPRLPRPRPRPPAQPRP" ?
Condition met

Entry "RRIRRRPPRLPRPRPRPVFQPRP" please
Condition not met

Again, but for "RRIRKRPPRLPRPRPRPPAFPRP"
Condition met

# repeat for "RRIRIRPPRLPRPRPRPPQLPRP"
Condition not met

Can you check "RRIRHRPPRLPRPRPRPPWWPRP" next?
Condition not met

Please give the result for "RRIRNRPPRLPRPRPRPLDAPRP" too.
Condition not met

Try "RRIRTRPPRLPRPRPRPPLCPRP" next.
Condition not met

And then "RRIRYRPPRLPRPRPRPRGVPRP" , what is it?
Condition not met

Moving on to the next sequence: "RRIRIRPPRLPRPRPRPIKFPRP"
Condition not met

Same question for "RRIRCRPPRLPRPRPRPSAAPRP" please.
Condition met

What do we get for "RRIRQRPPRLPRPRPRPLAQPRP" ?
Condition met

What do you get for "RRIRPRPPRLPRPRPRPVDDPRP" ?
Condition not met

Another: "RRIRDRPPRLPRPRPRPQIDPRP"
Condition not met

Now consider "RRIRVRPPRLPRPRPRPMKHPRP" .
Condition not met

Now consider "RRIRWRPPRLPRPRPRPLTEPRP" and answer again.
Condition met

Next up: "RRIRVRPPRLPRPRPRPDYIPRP"
Condition not met

Then this sequence: "RRIRDRPPRLPRPRPRPHFGPRP"
Condition not met

Please give the result for "RRIRQRPPRLPRPRPRPYASPRP" too.
Condition not met

Request: "RRIRVRPPRLPRPRPRPWQHPRP"
Condition not met

Query "RRIRGRPPRLPRPRPRPDHGPRP" next
Condition not met

Would you mind doing "RRIRCRPPRLPRPRPRPSLMPRP" as well?
Condition not met

Then "RRIRDRPPRLPRPRPRPPKVPRP" ?
Condition met

// same read-out, input: "RRIRDRPPRLPRPRPRPPARPRP"
Condition met

What do you have for "RRIRNRPPRLPRPRPRPWAFPRP" ?
Condition not met

Next up: "RRIRYRPPRLPRPRPRPPTQPRP"
Condition not met

Input "RRIRSRPPRLPRPRPRPAWIPRP"
Condition not met
